Reference for the values: ChEMBL document CHEMBL4689842

# Test system: HEK-293T
# protocol: Multiplex assay against HEK293T
# Type: toxicity, cell-based
# details: human, 24 h, 10 µM, compound concentration 10 uM, replicate 2
quantity.name: Population Hoechst High Intensity Objects (%)
Use % as the unit, but write only the number.

These solved cases illustrate the format of a correct answer.
{"smiles.code": "Cc1cn(-c2cc(NC(=O)c3ccc4c(c3)CN(c3cncnc3)C[C@@H]4C)cc(C(F)(F)F)c2)cn1", "recorded.number": 3}
{"smiles.code": "Cc1c(Oc2ccc(F)cc2)c(OC(C)C)nn1-c1ccc(C2CC2)cn1", "recorded.number": 2}
{"smiles.code": "CCOc1cc2ncc(C#N)c(Nc3ccc(OCc4cccc(F)c4)c(Cl)c3)c2cc1NC(=O)/C=C/CN(C)C", "recorded.number": 3}

# evaluate next
Query string: Look up Population Hoechst High Intensity Objects (%) with HEK-293T for this compound: CCc1cc2c(cc1CC)CC(NC[C@H](O)c1ccc(O)c3[nH]c(=O)ccc13)C2
Result string: 15
